Hi there, I'd appreciate the recorded PBM binding z-score for every entry that follows.
Tested on: RARb homodimer (NR concentration 270 nM)
Test: PBM binding z-score (relative to random genomic background probes); higher = stronger binding; sequences stand for … in GC…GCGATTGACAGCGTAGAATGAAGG
Answer field: number only, no words.

Data request, read-out PBM binding z-score, for `ATCTCTAGGTAAGACTCAGTTCAGAGAAGAACGC`
0.397

GET /values?readout=PBM binding z-score&item= `ATAGGTAGGTTACATCCGGGTCATTCAGGCTATG`
2.84

For `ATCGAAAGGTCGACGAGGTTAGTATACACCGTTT` , what is its reported PBM binding z-score?
3.1

Please look up its PBM binding z-score: `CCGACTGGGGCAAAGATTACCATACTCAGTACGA`
-0.379

For the sequence `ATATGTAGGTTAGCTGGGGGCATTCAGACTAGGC` , what PBM binding z-score is on record?
2.15

State the recorded PBM binding z-score for this entry: `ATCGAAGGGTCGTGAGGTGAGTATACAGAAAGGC`
2.09

Suppose we examine the sequence `CCAGACAGGTAAGAAGGTAACTCAGCCTCGATTA` ; what PBM binding z-score value has been reported?
-0.0494

Look up PBM binding z-score for this sequence: `CAAACTAGGTCACGAAAGGTCACAGTCGAATGAC`
6.08

Using the record for `ATACCAAGGTGATCGTGAGGGCGTTGATACTAAC` , report its PBM binding z-score.
1.07

Given the entry `GCGACTGGGGCAAAGAAGGTTACCATAAGGTTGG` , report its measured PBM binding z-score.
1.92

Using the record for `CGTCCAAGGTCAGTAGGTCAGTGAAAGCGACGTG` , report its PBM binding z-score.
4.74

Given the entry `ATATGTAGGGTAGCTGGGGTCATTCAGACTAGGC` , report its measured PBM binding z-score.
3.6

---

Test system: PPARg:RXRa DBDmut IVT, anti-RXR (DBD mutation: RXRa K156A/R161A, NR concentration 270 nM, RXRa partner concentration 90 nM)
Test: PBM binding z-score (relative to random genomic background probes); higher = stronger binding; sequences stand for … in GC…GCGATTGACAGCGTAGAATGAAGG
Kindly supply the reported PBM binding z-score values for the records listed here.
Format: numeric value only, no unit, no commentary.

Which PBM binding z-score is reported for this sequence? `CCTAGTTGGTCAGGAGGTGACACACCGGATATGA`
0.676

Sample `GCTGGTAGATCAAGGTTAAGAAAGACTAAGCTAA` — what was its PBM binding z-score?
-0.391

Requested field: PBM binding z-score. Item: `TCATATAGGTAAAGGTGCAAGTCGAACGATATGA`
3.53

Could you share which PBM binding z-score value was measured for `TCAGCCAGGTGAAGGTAACTCAGGTACGCAGTCG` ?
1.65

Request the reported PBM binding z-score associated with `TCGAGTACGTTACCAATGGGGCATTCAGCTTTCT`
0.846

Please report the recorded PBM binding z-score for `CCTATTAGTTGAACATAAGGGCAACCGAAGCTCG` .
0.458

Find the recorded PBM binding z-score belonging to `CCTACTGGGCCAGAAAGGTCATTGATGCCGATAA` and report it.
2.56

Would you mind telling me what PBM binding z-score value was observed for `ACAGACAGGTGAGTGAGGGTAACTCAGCTGGACG` ?
0.621

Data request, read-out PBM binding z-score, for `CCTACTGCGCCATTCAGAGGTCATTGATCATATG`
0.443

Param item = `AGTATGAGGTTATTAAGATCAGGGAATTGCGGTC` ; retrieve measured PBM binding z-score.
0.549

Reported PBM binding z-score, sequence `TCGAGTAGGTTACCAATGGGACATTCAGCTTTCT` : ____
2.84

Quick one: PBM binding z-score of `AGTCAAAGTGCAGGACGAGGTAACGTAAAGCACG` ?
-0.506
